Can you tell me solubility kinetic for the items I'm about to list?
Details: buffer; pH 7.4; 200.0 µM

Can you look up the measured solubility kinetic of Cc1cc(NC(=O)C(Cl)c2ccccc2)no1 (centres undefined) for me?
> 37.6 µg/mL

Can you look up the measured solubility kinetic of O=C(CC1SC(N2CCOCC2)=NC1=O)Nc1ccc(F)cc1 (centres undefined) for me?
> 50.6 µg/mL

Can you look up the measured solubility kinetic of `O=C(COC(=O)COc1ccc(Cl)cc1Cl)NC1CC1` for me?
> 47.7 µg/mL

Can you look up the measured solubility kinetic of `O=C(CNC(=O)C1CCCCC1)OCC(=O)c1ccc(F)cc1` for me?
> 48.2 µg/mL

Can you look up the measured solubility kinetic of CCCCNC(=O)[C@@H]1CSC2c3ccccc3C(=O)N21 (some centres undefined) for me?
> 43.6 µg/mL

Can you look up the measured solubility kinetic of `CN(C)C=NC(=O)c1cc(C(=O)c2ccc(F)cc2)c[nH]1` for me?
> 43.1 µg/mL

Can you look up the measured solubility kinetic of `O=C(C1CC1)N1CCN(c2ccc(O)cc2)CC1` for me?
> 36.9 µg/mL

Can you look up the measured solubility kinetic of `Cc1cc(C)cc(N=Cc2c(O)c3ccccc3oc2=O)c1` for me?
< 0.6 µg/mL

Can you look up the measured solubility kinetic of `Cc1cc(=O)[nH]c(SCC(=O)NCc2ccc3c(c2)OCO3)n1` for me?
> 50 µg/mL

====

Conditions: buffer; pH 7.4; 200.0 µM
Can you tell me solubility kinetic for the items I'm about to list?

Can you look up the measured solubility kinetic of `CCOC(=O)c1ccc(NC(=O)N2CCOCC2)cc1` for me?
> 41.7 µg/mL

Can you look up the measured solubility kinetic of COc1ccc(CNC(=O)C2CC(C)=CCC2C(=O)O)cc1 (stereo not drawn) for me?
> 45.5 µg/mL

Can you look up the measured solubility kinetic of Cc1ccc(OCC(O)CNC2CCCC2)cc1C.Cl (stereo not drawn) for me?
> 45 µg/mL

Can you look up the measured solubility kinetic of CC(Sc1ccccc1F)C(=O)Nc1cccc(S(=O)(=O)N2CCOCC2)c1 (stereo not drawn) for me?
> 63.7 µg/mL

Can you look up the measured solubility kinetic of `CNC(=S)Nc1ccc(C)c(NC(=S)NC)c1` for me?
> 40.3 µg/mL

Can you look up the measured solubility kinetic of CCC(C(=O)NCc1cccnc1)c1ccccc1 (stereo not drawn) for me?
> 38.1 µg/mL

Can you look up the measured solubility kinetic of `Cc1c(Cl)cnc(NC(=O)COC(=O)C2CCCC2)c1Cl` for me?
> 49.7 µg/mL

Can you look up the measured solubility kinetic of `COc1ccc(Nc2nccc3c2ncn3C)cc1` for me?
> 38.1 µg/mL

Can you look up the measured solubility kinetic of `CCCN1CCN(CCNC(=O)Nc2cc(C)ccc2C)CC1` for me?
> 47.8 µg/mL

Can you look up the measured solubility kinetic of `CC(C)c1nc(SCC(=O)NC(=O)NC(C)(C)C)n[nH]1` for me?
> 44.9 µg/mL

Can you look up the measured solubility kinetic of `c1ccc2c(CN3CCCCC3)c[nH]c2c1` for me?
> 32.1 µg/mL

Can you look up the measured solubility kinetic of `CC1(C)C(=O)Nc2ccccc2N1C(=O)COC(=O)Cc1ccccc1F` for me?
> 55.6 µg/mL

Can you look up the measured solubility kinetic of `O=c1[nH]c2ccc(NC(=S)Nc3ccc(F)cc3)cc2[nH]1` for me?
> 45.3 µg/mL

====

Can you tell me solubility kinetic for the items I'm about to list?
Conditions: buffer; pH 7.4; 200.0 µM

Can you look up the measured solubility kinetic of `C/C(=N\OCC(=O)O)c1ccc(Cl)cc1` for me?
> 34.1 µg/mL

Can you look up the measured solubility kinetic of `O=[N+]([O-])c1ccc(OCc2n[nH]c(=S)n2-c2ccccc2)cc1` for me?
> 49.3 µg/mL

Can you look up the measured solubility kinetic of Cc1ccc(NC(=S)NC2CCSc3ccccc32)cc1C (stereo not given) for me?
< 0.4 µg/mL

Can you look up the measured solubility kinetic of `Cc1cc(C(=O)OCC(=O)N2CCCCCC2)ccc1[N+](=O)[O-]` for me?
> 48.1 µg/mL

Can you look up the measured solubility kinetic of `O=C1CCCCCCCN1Cc1ccccc1` for me?
> 34.7 µg/mL

====

Can you tell me solubility kinetic for the items I'm about to list?
Settings: buffer; pH 7.4; 200.0 µM
# number only, unit µg/mL dropped from output

Can you look up the measured solubility kinetic of `O=C(O/N=C(/c1ccccc1)c1ccncc1)c1ccccc1[N+](=O)[O-]` for me?
8.3

Can you look up the measured solubility kinetic of `Oc1ccc(-c2cn3ccccc3n2)cc1O` for me?
24

Can you look up the measured solubility kinetic of `O=C1ON=C(c2ccccc2)/C1=C/c1ccccc1` for me?
34.7

Can you look up the measured solubility kinetic of `Nc1nc(N)c2c(n1)CCCC2` for me?
17.6

Can you look up the measured solubility kinetic of `N/C(COc1ccc(Cl)cc1Cl)=N\O` for me?
28.8

Can you look up the measured solubility kinetic of `Cc1cccc(NS(=O)(=O)c2ccc([N+](=O)[O-])cc2)n1` for me?
39.4

====

Conditions: buffer; pH 7.4; 200.0 µM
Classify on solubility kinetic using lower band (below 8 µg/mL), central band (8 µg/mL to below 40 µg/mL), upper band (40 µg/mL or more)

Exam item: assign `CN(CC(=O)Nc1ccccc1Cl)C(=O)c1ccc(Cl)c(S(=O)(=O)N2CCCCCC2)c1` to the correct category.
central band

Exam item: assign `Cc1cc(NC(=O)c2cc(-c3cccc(OCC(C)C)c3)nc3ccccc23)no1` to the correct category.
lower band

Exam item: assign `CC(=O)NC12CC3CC(C1)CC(C(=O)OCC(=O)c1cc(C)n(C)c1C)(C3)C2` to the correct category.
upper band

Exam item: assign `Cl.O=C(NC(=S)N1CCN(c2ccccc2)CC1)c1ccco1` to the correct category.
upper band

Exam item: assign CC(NC(=O)COC(=O)c1ccc(S(=O)(=O)N2CCOCC2)cc1)c1ccccc1 (centres undefined) to the correct category.
central band

Exam item: assign `CCN(CC)c1ccc(N=CN2CCOCC2)cc1` to the correct category.
central band

Exam item: assign CC(C)C(NC(=O)c1ccc(Cl)cc1)C(=O)NCC1CCCO1 (centres undefined) to the correct category.
upper band

Exam item: assign `O=C(C1CC1)N1CCN(c2ccc([N+](=O)[O-])cc2)CC1` to the correct category.
upper band

Exam item: assign `COCc1cc(=O)[nH]c(/N=C(\N)Nc2ccc(Cl)c(Cl)c2)n1` to the correct category.
lower band

Exam item: assign `COc1cccc(NC(=O)C2CCN(c3cnccn3)CC2)c1` to the correct category.
upper band

Exam item: assign `CC(C)(C)NS(=O)(=O)c1ccc(NC(=S)NC(=O)C2CCC2)cc1` to the correct category.
lower band

Exam item: assign CC1CN(CCc2ccccc2)c2nc3c(c(=O)n(C)c(=O)n3C)n2C1 (centres undefined) to the correct category.
upper band

Exam item: assign `COc1cc(C(=O)NCC(=O)OCc2ccc(F)cc2)cc(OC)c1OC` to the correct category.
central band

Exam item: assign `Cc1c(N(C)CS(=O)(=O)O)c(=O)n(-c2ccccc2)n1C.[Na]` to the correct category.
upper band

Exam item: assign `O=C(O)CNC(=O)C12CC3CC(CC(Cl)(C3)C1)C2` to the correct category.
upper band

Exam item: assign `COC(=O)c1ccc(NC(=O)c2ccc(OC(C)=O)c(OC)c2)cc1` to the correct category.
lower band

Exam item: assign `O=C(COc1ccc2c(c1)OCO2)NCc1cccs1` to the correct category.
upper band

Exam item: assign `NS(=O)(=O)c1ccc(S(=O)(=O)N2CCN(C3CCCC3)CC2)cc1` to the correct category.
upper band

Exam item: assign `CCOC(=O)c1c(C)[nH]c(C)c1C(=O)COC(=O)CSc1ccc(C)cc1` to the correct category.
upper band

====

Conditions: buffer; pH 7.4; 200.0 µM
observedProperty: solubility kinetic

Can you look up the measured solubility kinetic of `CC(=O)Nc1ccc(NC(=O)CCc2ccc(C)o2)cc1` for me?
> 42.9 µg/mL

Can you look up the measured solubility kinetic of CC(C)C(NC(=O)c1ccc(F)cc1)C(=O)N1CCC1 (stereo unspecified) for me?
> 41.7 µg/mL

Can you look up the measured solubility kinetic of NC(=O)NC(c1ccc(Cl)cc1)c1ccccc1Cl (stereo unspecified) for me?
> 44.3 µg/mL

Can you look up the measured solubility kinetic of `COc1ccc(C(=O)CCC(=O)Nc2cccnc2)c(OC)c1` for me?
> 47.2 µg/mL

Can you look up the measured solubility kinetic of `Cc1cccc(NC(=S)N2CCN(S(C)(=O)=O)CC2)c1` for me?
> 47 µg/mL

Can you look up the measured solubility kinetic of `CCn1c(=O)c(C(=O)Nc2ccc(C)cc2C)c(O)c2ccccc21` for me?
< 0.4 µg/mL

Can you look up the measured solubility kinetic of `O=C(O)/C(=C\c1ccco1)NC(=O)c1ccc(Br)o1` for me?
> 48.9 µg/mL

Can you look up the measured solubility kinetic of `CCOC(=O)c1cnn(C)c1NC(=O)c1ccc(Cl)cc1Cl` for me?
> 51.3 µg/mL

Can you look up the measured solubility kinetic of `CCCN1C(=O)/C(=C/c2nc3ccccc3c(=O)[nH]2)c2cc(C)ccc21` for me?
< 0.2 µg/mL

Can you look up the measured solubility kinetic of CC(C)c1ccc(NC2CCCN(C(=O)c3ccco3)C2)cc1 (stereo unspecified) for me?
> 46.9 µg/mL

Can you look up the measured solubility kinetic of `Nc1ccc(S(=O)(=O)NC2=NCCCCC2)cc1` for me?
> 40.1 µg/mL

Can you look up the measured solubility kinetic of Cc1cccc(-c2nsc(SCC(=O)NCC3CCCO3)n2)c1 (stereo unspecified) for me?
> 52.4 µg/mL

Can you look up the measured solubility kinetic of `O=[N+]([O-])c1cc(CN2CCCCCC2)ccc1O` for me?
33.3 µg/mL

Can you look up the measured solubility kinetic of `COc1ccc(S(=O)(=O)N(C)CC(=O)N2CCCC2)cc1OC` for me?
> 51.4 µg/mL

Can you look up the measured solubility kinetic of CC1CCCCC12NC(=O)N(CC(=O)NCCc1ccccc1)C2=O (stereo unspecified) for me?
> 51.5 µg/mL

Can you look up the measured solubility kinetic of `O=P(C(=NCCO)NO)(N1CCOCC1)N1CCOCC1` for me?
> 48.3 µg/mL

Can you look up the measured solubility kinetic of `CN(c1ccccc1)c1nc(N)c([N+](=O)[O-])c(NC2CCCCC2)n1` for me?
< 0.1 µg/mL

Can you look up the measured solubility kinetic of `O=c1[nH]c2ccc([N+](=O)[O-])cc2nc1/C=C(\O)c1ccccc1` for me?
2.3 µg/mL

Can you look up the measured solubility kinetic of `COc1ccc(NC(=O)c2cccs2)cn1` for me?
> 35.1 µg/mL

Can you look up the measured solubility kinetic of CN1CCCN=C1COC(=O)C(O)(c1ccccc1)C1CCCCC1.Cl (stereo unspecified) for me?
> 57.1 µg/mL

Can you look up the measured solubility kinetic of `O=c1c2oc3nc4c(cc3c2ncn1CCCc1ccccc1)CCCC4` for me?
1.3 µg/mL

Can you look up the measured solubility kinetic of OC(CN1CCN(c2ccc(C(F)(F)F)cn2)CC1)c1ccccc1 (stereo unspecified) for me?
1.8 µg/mL

Can you look up the measured solubility kinetic of `CC(=O)OCCCN(C)CC/C=C1/c2ccccc2CSc2ccccc21.Cl` for me?
53.8 µg/mL

Can you look up the measured solubility kinetic of `Cc1nc(NC(=O)c2cnccn2)ccc1Br` for me?
7.8 µg/mL

Can you look up the measured solubility kinetic of `Cc1ccc(NC(=O)CCc2ccc(S(=O)(=O)N3CCOCC3)cc2)c(O)c1` for me?
44.6 µg/mL

Can you look up the measured solubility kinetic of `CCCCCCC(=O)c1c([O-])n(-c2ccc(OC)cc2)c(=O)[nH]c1=O.C[NH+](C)C` for me?
44.5 µg/mL

Can you look up the measured solubility kinetic of `COc1ccc(CC(=O)N2CCCC2)c(OC)c1` for me?
36.6 µg/mL

Can you look up the measured solubility kinetic of Cc1ccc(C)c(NC(=O)C(c2ccccc2)N2CCN(CC(=O)N3CCOCC3)CC2)c1 (stereo unspecified) for me?
> 67.6 µg/mL

Can you look up the measured solubility kinetic of `Cc1ccc(COc2ccc(C)nc2[N+](=O)[O-])cc1` for me?
1.2 µg/mL

Can you look up the measured solubility kinetic of CC(NCCN(C)C)C(=O)C12CC3CC(CC(C3)C1)C2.Cl (stereo unspecified) for me?
52.4 µg/mL

Can you look up the measured solubility kinetic of `CCCn1c(C)nnc1SCC(=O)NC1CCCCC1` for me?
> 44.5 µg/mL

Origin of values: PubChem BioAssay AID1996
